B1: NF2 (merlin) isoform 7, human, full length (507 aa, lacks exons 2-3 = isoform-1 residues 39-121; exon-16 C-terminus), P35240-4 (parent)
chain: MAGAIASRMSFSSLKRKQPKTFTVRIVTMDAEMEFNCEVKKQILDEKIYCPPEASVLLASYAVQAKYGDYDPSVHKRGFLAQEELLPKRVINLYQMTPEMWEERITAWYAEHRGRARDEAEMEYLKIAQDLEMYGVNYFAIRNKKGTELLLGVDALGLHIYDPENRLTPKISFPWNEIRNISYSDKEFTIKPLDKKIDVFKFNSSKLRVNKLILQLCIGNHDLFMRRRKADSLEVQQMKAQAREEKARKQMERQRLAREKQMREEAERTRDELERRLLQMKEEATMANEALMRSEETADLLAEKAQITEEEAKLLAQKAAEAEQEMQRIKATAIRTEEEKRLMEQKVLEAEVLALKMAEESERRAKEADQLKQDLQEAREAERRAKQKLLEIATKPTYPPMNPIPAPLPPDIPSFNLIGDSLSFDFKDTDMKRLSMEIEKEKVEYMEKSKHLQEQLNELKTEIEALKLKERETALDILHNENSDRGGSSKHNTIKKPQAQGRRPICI

# Variants of: B1
# PROTOCOL DESCRIPTION: reverse yeast two-hybrid deep mutational scan (rY2H-seq): NF2 isoform 7 mutant library as bait mated with wild-type prey strains; selection on medium lacking adenine for non-interacting pairs; NextSeq paired-end sequencing; enrichment vs …
# TEST SETTINGS: with EMILIN1 (elastin microfibril interfacer 1), Q9Y6C2; yeast diploids after mating (RBait_S3 x RPrey_S3), 30 °C, selection for reporter genes on NB agar; human tyrosine kinase ABL2 co-expressed as the active kinase …; HIGHER = WEAKER BINDING (the opposite of display enrichments): higher = stronger loss of interaction: reverse Y2H selects yeast in which bait and prey do NOT interact (growth without adenine), so a …; hits-only table; scale: rY2H score; numbering: uniprot, sequence starts at 1
Reported values of enrichment for individual entries
Simply state the number, no unit and no words.

# input What value of enrichment has been recorded for this entry: W175E
# output 6.77
